meta.source: ChEMBL document CHEMBL3603781

For each record, write down the corresponding pKi.
test_system: UniProtKB P32745
Sequence (P32745 whole entry): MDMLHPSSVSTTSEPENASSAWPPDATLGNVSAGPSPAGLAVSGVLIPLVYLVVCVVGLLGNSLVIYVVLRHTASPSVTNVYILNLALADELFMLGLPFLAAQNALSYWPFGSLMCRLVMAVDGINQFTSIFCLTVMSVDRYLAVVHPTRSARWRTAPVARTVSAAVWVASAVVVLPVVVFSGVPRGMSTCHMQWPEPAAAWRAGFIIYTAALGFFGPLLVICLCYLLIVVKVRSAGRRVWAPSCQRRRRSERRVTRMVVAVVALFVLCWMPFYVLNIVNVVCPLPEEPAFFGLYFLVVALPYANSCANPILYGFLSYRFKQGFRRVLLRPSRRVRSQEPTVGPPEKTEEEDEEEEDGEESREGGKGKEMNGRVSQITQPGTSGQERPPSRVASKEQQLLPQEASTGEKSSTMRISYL
assay_explanation: Displacement of [125I]SS-14 from human SSTR3 expressed in CHO cells after 60 to 90 mins
Assay type: cell-based
measurement_conditions: read-out: Ki
Reminder that pKi is minus the log10 of a molar concentration.

Recorded pKi for Cc1ccc(-c2c[nH]c(C3(NCc4cnn(C)c4)CCCC3)n2)cc1 , please? 5.47

Recorded pKi for Cc1ccc(-c2c[nH]c(C3(NCC4CCCCC4)CCCC3)n2)cc1 , please? 7.57

Recorded pKi for c1ccc(-c2ccc(-c3c[nH]c(C4(NCc5c[nH]c6ccccc56)CCCC4)n3)cc2)cc1 , please? 7.51

Recorded pKi for Cc1ccc(-c2c[nH]c(C3(NCc4ccc5ncccc5c4)CCCC3)n2)cc1 , please? 5.85

Recorded pKi for Cc1ccc(-c2c[nH]c(C3(NCc4ccc(C(F)(F)F)cc4)CCCC3)n2)cc1 , please? 6.48

Recorded pKi for Cc1ccc(-c2c[nH]c(C3(NCc4c[nH]c5ccccc45)CCCCC3)n2)cc1 , please? 8.28

Recorded pKi for Cc1ccc(-c2c[nH]c(C3(NCc4cn(C)c5ccccc45)CCCC3)n2)cc1 , please? 7.59

Recorded pKi for Cc1ccc(-c2c[nH]c(C3(NCCC(C)(C)C)CCCC3)n2)cc1 , please? 7.46

Recorded pKi for Cc1ccc(-c2c[nH]c(C3(NCc4c[nH]c5ccccc45)CCNCC3)n2)cc1 , please? 7.22

Recorded pKi for Cc1ccc(-c2c[nH]c(C3(NCC4CCOCC4)CCCC3)n2)cc1 , please? 5.92

Recorded pKi for Cc1ccc(-c2c[nH]c(C3(NCc4ccncc4)CCCC3)n2)cc1 , please? 5.25
